# System Under Test: T1, human GIP receptor (human, UniProt P48546 22-466)
# T1 sequence (looked up): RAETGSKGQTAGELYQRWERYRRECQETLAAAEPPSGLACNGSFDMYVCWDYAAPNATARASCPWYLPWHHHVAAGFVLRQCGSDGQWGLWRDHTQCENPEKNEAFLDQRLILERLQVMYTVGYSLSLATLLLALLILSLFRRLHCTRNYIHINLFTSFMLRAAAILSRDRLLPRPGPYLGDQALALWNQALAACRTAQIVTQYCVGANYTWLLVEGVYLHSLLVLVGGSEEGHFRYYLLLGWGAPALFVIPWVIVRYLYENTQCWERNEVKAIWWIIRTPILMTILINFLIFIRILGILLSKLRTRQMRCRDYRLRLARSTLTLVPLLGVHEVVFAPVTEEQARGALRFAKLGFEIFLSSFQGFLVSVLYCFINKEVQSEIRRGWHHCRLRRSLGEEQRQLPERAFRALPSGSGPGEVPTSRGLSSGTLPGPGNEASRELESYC
# Assay Overview: cell-based or functional assay
Numbered stars: 1 amine (or outer) side, 2 acyl side, 3 side chain; on linkers, the order of the positions; unused ones are H or OH. Square brackets hold non-standard residues; d marks the D form. Side chains are listed from the residue outwards. * marks the point of attachment. C16 diacid = O=C(O)CCCCCCCCCCCCCCC(=O)*; γGlu = O=C(O)[C@H](CCC(=O)[*:2])N[*:1]; Chem. 28 = not defined here; AEEA = NCCOCCOCC(=O)O; Aib = CC(C)(N)C(=O)O
Measured Parameter: hGIPR Potency, 1% HSA, EC50 [pM] (pM)
Numbers only, in pM.

Give the measured hGIPR Potency, 1% HSA, EC50 [pM] of Compound 50 (reading uncertain) peptide: Y[Aib]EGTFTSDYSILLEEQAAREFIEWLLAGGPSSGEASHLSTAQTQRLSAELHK(Chem. 28)LATLPRTETGSGSP-NH2 .
15.1

Please look at the following binder next.
Give the measured hGIPR Potency, 1% HSA, EC50 [pM] of Compound 62 (peptide) peptide: H[Aib]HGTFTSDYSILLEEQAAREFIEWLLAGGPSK([AEEA-AEEA-γGlu-C16 diacid])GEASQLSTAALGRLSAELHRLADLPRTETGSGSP-NH2 .
47.2
